Tested on: LPESG (Abz-LPESGK(Dnp)-CONH2)
Test: In vitro sortase kinetics HPLC assay, LPESG substrate
Assay type: biochemical
Conditions: substrate 4S (LPESG)
Examples of molecules with documented kL/KL/KH follow.
MEASURE: kL/KL/KH

{"MOLECULE": "4S.6A: 5mut + N98D A104V A118S F122A K134G I182V E189V (protein) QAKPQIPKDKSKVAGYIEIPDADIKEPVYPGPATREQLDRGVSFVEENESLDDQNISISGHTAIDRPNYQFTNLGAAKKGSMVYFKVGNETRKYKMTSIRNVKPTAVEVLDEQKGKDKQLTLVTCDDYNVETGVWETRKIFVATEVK", "MEASURE": "kL/KL/KH", "RECORDED VALUE": "5.24E+07"}
{"MOLECULE": "4S.6B: 5mut + N98D A104V A118S F122A K134P I182V E189P (protein) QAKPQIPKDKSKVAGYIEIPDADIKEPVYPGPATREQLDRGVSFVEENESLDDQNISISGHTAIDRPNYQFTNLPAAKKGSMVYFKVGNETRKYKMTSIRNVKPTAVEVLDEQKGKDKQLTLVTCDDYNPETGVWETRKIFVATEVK", "MEASURE": "kL/KL/KH", "RECORDED VALUE": "3.38E+07"}
{"MOLECULE": "eSrtA(4S-5): 5mut + N98D A104V A118T F122A K134R I182V (protein) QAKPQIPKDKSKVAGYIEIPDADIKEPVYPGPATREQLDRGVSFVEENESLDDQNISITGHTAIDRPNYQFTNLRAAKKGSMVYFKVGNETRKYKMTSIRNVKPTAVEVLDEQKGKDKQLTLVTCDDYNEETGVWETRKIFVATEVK", "MEASURE": "kL/KL/KH", "RECORDED VALUE": "2.69E+07"}
{"MOLECULE": "4S.6C: 5mut + N98D A104V A118T F122A K134R I182V E189F (protein) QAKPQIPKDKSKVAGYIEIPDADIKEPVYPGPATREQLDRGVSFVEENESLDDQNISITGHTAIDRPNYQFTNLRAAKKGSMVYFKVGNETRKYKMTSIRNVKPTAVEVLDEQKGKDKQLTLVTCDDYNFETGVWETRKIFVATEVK", "MEASURE": "kL/KL/KH", "RECORDED VALUE": "1.30E+07"}
